experiment: total protein half-life in vivo (active degradation + dilution); higher = more stable protein; settings: wild type E. coli NCM3722; growth: P-lim chemostat; doubling time 12 h
metric name: total protein half-life in vivo (h)
Respond numerically; units are h and should not be typed.

MSKRYFVTGTDTEVGKTVASCALLQAAKAAGYRTAGYKPVASGSEKTPEGLRNSDALALQRNSSLQLDYATVNPYTFAEPTSPHIISAQEGRPIESLVMSAGLRALEQQADWVLVEGAGGWFTPLSDTFTFADWVTQEQLPVILVVGVKLGCINHAMLTAQVIQHAGLTLAGWVANDVTPPGKRHAEYMTTLTRMIPAPLLGEIPWLAENPENAATGKYINLALL	12.5
MNMKTIEDVFIHLLSDTYSAEKQLTRALAKLARATSNEKLSQAFHAHLEETHGQIERIDQVVESESNLKIKRMKCVAMEGLIEEANEVIESTEKNEVRDAALIAAAQKVEHYEIASYGTLATLAEQLGYRKAAKLLKETLEEEKATDIKLTDLAINNVNKKAENKA	10.3

### Prompt Dear colleague, I am looking for the recorded total protein half-life in vivo of the following sequence: MTEAQRHQILLEMLAQLGFVTVEKVVERLGISPATARRDINKLDESGKLKKVRNGAEAITQQRPRWTPMNLHQAQNHDEKVRIAKAASQLVNPGESVVINCGSTAFLLGREMCGKPVQIITNYLPLANYLIDQEHDSVIIMGGQYNKSQSITLSPQGSENSLYAGHWMFTSGKGLTAEGLYKTDMLTAMAEQKMLSVVGKLVVLVDSSKIGERAGMLFSRADQIDMLITGKNANPEILQQLEAQGVSILRV [P0A9W0]
### Response 13.3

----------
Let's look at some sequences and their measured total protein half-life in vivo.
assay: total protein half-life in vivo (active degradation + dilution); higher = more stable protein; details: E. coli NCM3722 delta-clpP; growth: N-lim chemostat; doubling time 6 h
Write the number in h without appending the unit.

### Prompt Bench note: what total protein half-life in vivo did MTMSLEVFEKLEAKVQQAIDTITLLQMEIEELKEKNNSLSQEVQNAQHQREELERENNHLKEQQNGWQERLQALLGRMEEV [P0AF36] show?
### Response 5.62

### Prompt total protein half-life in vivo for MSDERYQQRQQRVKEKVDARVAQAQDERGIIIVFTGNGKGKTTAAFGTATRAVGHGKKVGVVQFIKGTWPNGERNLLEPHGVEFQVMATGFTWDTQNRESDTAACREVWQHAKRMLADSSLDMVLLDELTYMVAYDYLPLEEVVQALNERPHQQTVIITGRGCHRDILELADTVSELRPVKHAFDAGVKAQIGIDY [P0A9H5] ?
### Response 4.52

### Prompt Item under review: `MSIEIANIKKSFGRTQVLNDISLDIPSGQMVALLGPSGSGKTTLLRIIAGLEHQTSGHIRFHGTDVSRLHARDRKVGFVFQHYALFRHMTVFDNIAFGLTVLPRRERPNAAAIKAKVTKLLEMVQLAHLADRYPAQLSGGQKQRVALARALAVEPQILLLDEPFGALDAQVRKELRRWLRQLHEELKFTSVFVTHDQEEATEVADRVVVMSQGNIEQADAPDQVWREPATRFVLEFMGEVNRLQGTIRGGQFHVGAHRWPLGYTPAYQGPVDLFLRPWEVDISRRTSLDSPLPVQVLEASPKGHYTQLVVQPLGWYNEPLTVVMHGDDAPQRGERLFVGLQHARLYNGDERIETRDEELALAQSA` . Reported total protein half-life in vivo?
### Response 5.04

### Prompt Fill blank: measured total protein half-life in vivo of the sequence MSSRVLTPDVVGIDALVHDHQTVLAKAEGGVVAVFANNAPAFYAVTPARLAELLALEEKLARPGSDVALDDQLYQEPQAAPVAVPMGKFAMYPDWQPDADFIRLAALWGVALREPVTTEELASFIAYWQAEGKVFHHVQWQQKLARSLQIGRASNGGLPKRDVNTVSEPDSQIPPGFRG [P0A8J2] is ____.
### Response 4.26
